B1: TOR1AIP2 (parent)
chain: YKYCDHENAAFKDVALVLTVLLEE

# Variants of: B1
# assay-protocol: protein stability index of a GFP-peptide fusion (GPS, HEK-293T) (PSI 1-6); higher = more stable;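 note: lentivirally expressed fusions sorted by FACS into six bins by GFP to DsRed ratio, PSI derived from sequencing read proportions per bin multiplied by bin number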
# cond: c terminus: a fixed tail appended
quantity-name: protein stability index

{"columns": ["mutation-key", "recorded-number"],
 "data": [
  ["L18R", 2.16],
  ["H6P", 2],
  ["Y1L", 2.17],
  ["V17R", 1.73],
  ["D13L", 3.1],
  ["Y3P", 3.07],
  ["V20H", 1.46],
  ["D5Y", 2.4],
  ["V20R", 2.03],
  ["L21W", 2.84],
  ["L21C", 1.47],
  ["E24S", 3.26],
  ["V14I", 2.17],
  ["E23N", 2.26],
  ["L16T", 1.5],
  ["V14L", 4.94],
  ["V17F", 2.66],
  ["V17K", 1.89],
  ["A10K", 3.02],
  ["A9D", 1.4],
  ["L21I", 2.99],
  ["D13Q", 2.66]
]}
